Biological target: UniProt P18825
Sequence (P18825 whole entry): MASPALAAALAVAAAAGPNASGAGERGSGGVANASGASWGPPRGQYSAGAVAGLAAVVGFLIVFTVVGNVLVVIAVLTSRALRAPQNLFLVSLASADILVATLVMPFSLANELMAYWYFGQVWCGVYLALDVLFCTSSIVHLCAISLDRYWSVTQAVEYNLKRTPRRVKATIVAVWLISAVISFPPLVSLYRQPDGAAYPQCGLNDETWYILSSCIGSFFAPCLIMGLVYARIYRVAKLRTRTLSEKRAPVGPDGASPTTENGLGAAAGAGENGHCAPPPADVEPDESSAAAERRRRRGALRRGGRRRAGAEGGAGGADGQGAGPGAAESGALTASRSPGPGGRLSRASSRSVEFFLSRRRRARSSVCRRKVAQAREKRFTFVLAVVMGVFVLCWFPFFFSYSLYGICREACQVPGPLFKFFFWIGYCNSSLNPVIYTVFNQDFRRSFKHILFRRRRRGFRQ
Experiment: biochemical

{"Sample Smiles": "COc1cccn2c(=O)c(CCN3CCc4oc5ccccc5c4C3)c(C)nc12", "IC50 [nM]": 0.708}
{"Sample Smiles": "Cc1nc2ccccn2c(=O)c1CCN1CCc2oc3ccc(Cl)cc3c2C1", "IC50 [nM]": 27.5}
{"Sample Smiles": "Cc1ccn2c(=O)c(CCN3CCc4oc5ccccc5c4C3)c(C)nc2c1", "IC50 [nM]": 1.2}
{"Sample Smiles": "Cc1nc2ccccn2c(=O)c1CCN1CCc2oc3c(Cl)cccc3c2C1", "IC50 [nM]": 2.24}
{"Sample Smiles": "Cc1nc2ccccn2c(=O)c1CCN1CCc2sc3ccccc3c2C1", "IC50 [nM]": 14.1}
{"Sample Smiles": "Cc1nc2ccc(I)cn2c(=O)c1CCN1CCc2oc3ccccc3c2C1", "IC50 [nM]": 0.617}
{"Sample Smiles": "Cc1cc(C)n2c(=O)c(CCN3CCc4oc5ccccc5c4C3)c(C)nc2c1", "IC50 [nM]": 0.851}
{"Sample Smiles": "Cc1nc2c(O)cccn2c(=O)c1CCN1CCc2oc3ccccc3c2C1", "IC50 [nM]": 1.62}
{"Sample Smiles": "COc1cc2nc(C)c(CCN3CCc4oc5ccccc5c4C3)c(=O)n2cc1OC", "IC50 [nM]": 57.5}
{"Sample Smiles": "Cc1nc2ccccn2c(=O)c1CCN1CCc2oc3ccccc3c2C1", "IC50 [nM]": 1.7}
